Where do the numbers come from? From ChEMBL document CHEMBL2016476.

Test: Octanol-water partition coefficient, log D of the compound at pH 7.4
Format: physicochemical
Hi, to clarify the labels: Criterion met covers logD from 3 upward, Criterion not met covers anything below 3.

smiles_notation=CC1=C(CCCCCCCCCC[P+](C)(C)C)C(=O)c2ccccc2C1=O class_name="Criterion not met"
smiles_notation=O=C1C=C(CCCCCCCCCC[P+](Cc2ccccc2)(Cc2ccccc2)Cc2ccccc2)C(=O)c2ccccc21 class_name="Criterion met"
smiles_notation=C[P+](C)(C)CCCCCCCCCCN1C(=O)c2ccccc2C1=O class_name="Criterion not met"
smiles_notation=O=C1c2ccccc2C(=O)N1CCCCCCCCCC[P+](c1ccccc1)(c1ccccc1)c1ccccc1 class_name="Criterion not met"
smiles_notation=O=C1C=C(NCCCCCCCCCC[P+](Cc2ccccc2)(Cc2ccccc2)Cc2ccccc2)C(=O)c2ccccc21 class_name="Criterion not met"
smiles_notation=O=C1C=C(NCCCCCCCCCC[P+](C2CCCCC2)(C2CCCCC2)C2CCCCC2)C(=O)c2ccccc21 class_name="Criterion met"
smiles_notation=CC1=C(CCCCCCCCCC[P+](Cc2ccccc2)(Cc2ccccc2)Cc2ccccc2)C(=O)c2ccccc2C1=O class_name="Criterion met"
smiles_notation=CC1=C(CCCCCCCCCC[P+](c2ccccc2C)(c2ccccc2C)c2ccccc2C)C(=O)c2ccccc2C1=O class_name="Criterion met"
smiles_notation=CC1=C(CCCCCCCCCC[P+](C2CCCCC2)(C2CCCCC2)C2CCCCC2)C(=O)c2ccccc2C1=O class_name="Criterion met"

====

System: Trypanosoma cruzi
Experiment: Antitrypanosomal activity against Trypanosoma cruzi Tulahuen 2 infected in african green monkey Vero cells expressing red fluorescent protein after 3 days by fluorescence analysis
Type: functional, organism-based
Conditions: Tulahuen 2, Vero, 72 h
IC50 values for the compounds below.
assay endpoint: IC50

smiles_notation=CCCCCCCCCCC1=CC(=O)c2ccccc2C1=O assay_endpoint=IC50 result="9.3 µM"
smiles_notation=CCCC[P+](CCCC)(CCCC)CCCCCCCCCCC1=C(C)C(=O)c2ccccc2C1=O assay_endpoint=IC50 result="4 µM"
smiles_notation=CC1=C(CCCCCCCCCC[P+](C2CCCCC2)(C2CCCCC2)C2CCCCC2)C(=O)c2ccccc2C1=O assay_endpoint=IC50 result="2.4 µM"
smiles_notation=CC1=C(CCCCCCCCCC[P+](Cc2ccccc2)(Cc2ccccc2)Cc2ccccc2)C(=O)c2ccccc2C1=O assay_endpoint=IC50 result="3.7 µM"
smiles_notation=O=C1C=C(NCCCCCCCCCC[P+](c2ccccc2)(c2ccccc2)c2ccccc2)C(=O)c2ccccc21 assay_endpoint=IC50 result="1.6 µM"
smiles_notation=CC1=C(CCCCC[P+](c2ccccc2)(c2ccccc2)c2ccccc2)C(=O)c2ccccc2C1=O assay_endpoint=IC50 result="5.4 µM"
smiles_notation=CC1=C(CCCCCCCCCC[P+](c2ccccc2)(c2ccccc2)c2ccccc2)C(=O)c2ccccc2C1=O assay_endpoint=IC50 result="1.6 µM"
smiles_notation=O=C1C=C(CCCCCCCCCC[P+](Cc2ccccc2)(Cc2ccccc2)Cc2ccccc2)C(=O)c2ccccc21 assay_endpoint=IC50 result="3 µM"
smiles_notation=CC1=C(CCCC[P+](c2ccccc2)(c2ccccc2)c2ccccc2)C(=O)c2ccccc2C1=O assay_endpoint=IC50 result="2.7 µM"
smiles_notation=CCCCCCCCCNC1=CC(=O)c2ccccc2C1=O assay_endpoint=IC50 result="17.3 µM"

====

logD values for the compounds below.
Assay: Octanol-water partition coefficient, log D of the compound at pH 7.4
Assay type: physicochemical
assay endpoint: logD

smiles_notation=CC1=C(CCCCC[P+](C)(C)C)C(=O)c2ccccc2C1=O assay_endpoint=logD measured_number=0.21
smiles_notation=O=C1c2ccccc2C(=O)N1CCCCCC[P+](c1ccccc1)(c1ccccc1)c1ccccc1 assay_endpoint=logD measured_number=1.14
smiles_notation=Cc1ccccc1[P+](CCCCCCCCCCN1C(=O)c2ccccc2C1=O)(c1ccccc1C)c1ccccc1C assay_endpoint=logD measured_number=-0.75
smiles_notation=O=C1C=C(NCCCCCCCCCC[P+](c2ccccc2)(c2ccccc2)c2ccccc2)C(=O)c2ccccc21 assay_endpoint=logD measured_number=3.6
smiles_notation=CC1=C(CCCC[P+](c2ccccc2)(c2ccccc2)c2ccccc2)C(=O)c2ccccc2C1=O assay_endpoint=logD measured_number=1.91
smiles_notation=O=C1C=C(CCCCC[P+](c2ccccc2)(c2ccccc2)c2ccccc2)C(=O)c2ccccc21 assay_endpoint=logD measured_number=1

====

Tested on: Vero
Assay: Cytotoxicity against african green monkey Vero cells at 25 uM after 3 days
Format: cell-based
Settings: chlorocebus sabaeus, 72 h
assay endpoint: Activity

smiles_notation=O=C1C=C(NCCCCCCCCCC[P+](c2ccccc2)(c2ccccc2)c2ccccc2)C(=O)c2ccccc21 assay_endpoint=Activity result=Toxic
smiles_notation=CCCCCCCCCNC1=CC(=O)c2ccccc2C1=O assay_endpoint=Activity result=Non-toxic
smiles_notation=CCCC[P+](CCCC)(CCCC)CCCCCCCCCCC1=C(C)C(=O)c2ccccc2C1=O assay_endpoint=Activity result=Toxic
smiles_notation=CC1=C(CCCCCCCCCC[P+](C2CCCCC2)(C2CCCCC2)C2CCCCC2)C(=O)c2ccccc2C1=O assay_endpoint=Activity result=Toxic
smiles_notation=CCCCCCCCCCC1=CC(=O)c2ccccc2C1=O assay_endpoint=Activity result=Non-toxic
smiles_notation=O=C(Cn1ccnc1[N+](=O)[O-])NCc1ccccc1 assay_endpoint=Activity result=Non-toxic
smiles_notation=CC1=C(CCCCCCCCCC[P+](Cc2ccccc2)(Cc2ccccc2)Cc2ccccc2)C(=O)c2ccccc2C1=O assay_endpoint=Activity result=Toxic
smiles_notation=CC1=C(CCCC[P+](c2ccccc2)(c2ccccc2)c2ccccc2)C(=O)c2ccccc2C1=O assay_endpoint=Activity result=Non-toxic
smiles_notation=CC1=C(CCCCCCCCCC[P+](c2ccccc2)(c2ccccc2)c2ccccc2)C(=O)c2ccccc2C1=O assay_endpoint=Activity result=Toxic
smiles_notation=O=C1C=C(CCCCCCCCCC[P+](Cc2ccccc2)(Cc2ccccc2)Cc2ccccc2)C(=O)c2ccccc21 assay_endpoint=Activity result=Non-toxic
smiles_notation=CC1=C(CCCCC[P+](c2ccccc2)(c2ccccc2)c2ccccc2)C(=O)c2ccccc2C1=O assay_endpoint=Activity result=Toxic

====

Assay: Octanol-water partition coefficient, log D of the compound at pH 7.4
Format: physicochemical
assay endpoint: logD

smiles_notation=O=C1C=C(NCCCCCCCCCC[P+](c2ccc(F)cc2)(c2ccc(F)cc2)c2ccc(F)cc2)C(=O)c2ccccc21 measured_number=1.67
smiles_notation=O=C1C=C(CCCCCCCCCC[P+](c2ccccc2)(c2ccccc2)c2ccccc2)C(=O)c2ccccc21 measured_number=4.08
smiles_notation=CC1=C(CCCCC[P+](c2ccccc2)(c2ccccc2)c2ccccc2)C(=O)c2ccccc2C1=O measured_number=2.15
smiles_notation=CCCC[P+](CCCC)(CCCC)CCCCCCCCCCC1=C(C)C(=O)c2ccccc2C1=O measured_number=5.1
smiles_notation=O=C1c2ccccc2C(=O)N1CCCCCCCCCC[P+](C1CCCCC1)(C1CCCCC1)C1CCCCC1 measured_number=4.5
smiles_notation=O=C1c2ccccc2C(=O)N1CCCCCCCCCC[P+](Cc1ccccc1)(Cc1ccccc1)Cc1ccccc1 measured_number=1.37
smiles_notation=O=C1c2ccccc2C(=O)N1CCCCCCCCCC[P+](c1ccc(F)cc1)(c1ccc(F)cc1)c1ccc(F)cc1 measured_number=2.13
smiles_notation=COc1ccc([P+](CCCCCCCCCCC2=C(C)C(=O)c3ccccc3C2=O)(c2ccc(OC)cc2)c2ccc(OC)cc2)cc1 measured_number=3.52

====

Test system: Vero
Assay: Cytotoxicity against african green monkey Vero cells at 6.25 uM after 3 days
Assay type: cell-based
Conditions: chlorocebus sabaeus, 72 h
assay endpoint: Activity

compound=CCCC[P+](CCCC)(CCCC)CCCCCCCCCCC1=C(C)C(=O)c2ccccc2C1=O target_of_assay=Vero result=Non-toxic
compound=CC1=C(CCCC[P+](c2ccccc2)(c2ccccc2)c2ccccc2)C(=O)c2ccccc2C1=O target_of_assay=Vero result=Non-toxic
compound=O=C1C=C(NCCCCCCCCCC[P+](c2ccccc2)(c2ccccc2)c2ccccc2)C(=O)c2ccccc21 target_of_assay=Vero result=Toxic
compound=CCCCCCCCCNC1=CC(=O)c2ccccc2C1=O target_of_assay=Vero result=Non-toxic
compound=CC1=C(CCCCC[P+](c2ccccc2)(c2ccccc2)c2ccccc2)C(=O)c2ccccc2C1=O target_of_assay=Vero result=Non-toxic
compound=CC1=C(CCCCCCCCCC[P+](C2CCCCC2)(C2CCCCC2)C2CCCCC2)C(=O)c2ccccc2C1=O target_of_assay=Vero result=Non-toxic
compound="O=C(Cn1ccnc1[N+](=O)[O-])NCc1ccccc1 [BENZNIDAZOLE]" target_of_assay=Vero result=Non-toxic
compound=CC1=C(CCCCCCCCCC[P+](Cc2ccccc2)(Cc2ccccc2)Cc2ccccc2)C(=O)c2ccccc2C1=O target_of_assay=Vero result=Non-toxic
compound=CCCCCCCCCCC1=CC(=O)c2ccccc2C1=O target_of_assay=Vero result=Non-toxic
compound=CC1=C(CCCCCCCCCC[P+](c2ccccc2)(c2ccccc2)c2ccccc2)C(=O)c2ccccc2C1=O target_of_assay=Vero result=Toxic
compound=O=C1C=C(CCCCCCCCCC[P+](Cc2ccccc2)(Cc2ccccc2)Cc2ccccc2)C(=O)c2ccccc21 target_of_assay=Vero result=Non-toxic
